// pKd lookup, one value per entry
Biological target: T1, EsCas13d, nuclease-dead (Eubacterium siraeum, UniProt B0MS50, R295A;H300A;R849A;H854A)
T1 sequence: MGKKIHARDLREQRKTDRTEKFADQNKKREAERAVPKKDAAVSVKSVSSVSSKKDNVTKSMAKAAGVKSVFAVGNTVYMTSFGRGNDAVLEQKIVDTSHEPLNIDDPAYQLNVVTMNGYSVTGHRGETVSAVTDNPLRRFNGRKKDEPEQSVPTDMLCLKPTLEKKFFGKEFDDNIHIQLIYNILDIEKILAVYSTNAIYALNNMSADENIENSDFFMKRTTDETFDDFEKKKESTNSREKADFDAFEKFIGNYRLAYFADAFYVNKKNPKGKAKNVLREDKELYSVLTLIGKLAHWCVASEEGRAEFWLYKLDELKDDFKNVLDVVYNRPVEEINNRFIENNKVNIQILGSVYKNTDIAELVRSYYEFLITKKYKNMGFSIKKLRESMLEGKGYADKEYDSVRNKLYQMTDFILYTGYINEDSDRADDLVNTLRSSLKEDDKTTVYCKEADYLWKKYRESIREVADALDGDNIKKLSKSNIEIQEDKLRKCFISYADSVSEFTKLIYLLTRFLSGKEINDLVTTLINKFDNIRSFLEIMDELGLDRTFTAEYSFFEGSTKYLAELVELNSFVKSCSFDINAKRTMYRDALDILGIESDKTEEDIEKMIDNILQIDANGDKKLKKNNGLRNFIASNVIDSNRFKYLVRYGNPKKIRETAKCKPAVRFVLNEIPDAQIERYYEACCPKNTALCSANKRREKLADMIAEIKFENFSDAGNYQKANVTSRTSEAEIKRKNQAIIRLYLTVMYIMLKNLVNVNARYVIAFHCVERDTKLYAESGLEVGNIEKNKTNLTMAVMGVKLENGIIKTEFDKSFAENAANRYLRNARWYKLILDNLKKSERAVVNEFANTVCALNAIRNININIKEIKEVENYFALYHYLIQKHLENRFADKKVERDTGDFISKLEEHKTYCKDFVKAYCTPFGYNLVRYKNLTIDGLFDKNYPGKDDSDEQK
Assay: crRNA (strand 1, pre-loaded); Mg2+; 40 mM Tris-HCl pH 7.5, 150 mM NaCl, 6 mM MgCl2, 1 mM DTT, 0.1% Tween-20, 0.2 mg/ml BSA; 25 C; 10 min per concentration, then washed
Conditions: tags: His6-TwinStrep-SUMO cleaved; N-terminal SNAP kept (SNAP-Surface 488); label: 3' end held by stalled T7 RNA polymerase
Field pKd (float): negative decimal logarithm of the concentration in molar.

[[record]]
binder = "target 2 MT 5'PFS UGA 3'PFS CUC (mixed) RNA 1: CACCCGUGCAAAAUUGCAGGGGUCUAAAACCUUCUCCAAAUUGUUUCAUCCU RNA 2: GGGAAUGGAUCCACAUCUACGAAUUCUGAAGGAUGAAACAAUUUGGAGAAGCUCAGAUCGGAAGAGCACACGU"
measure_name = "pKd"
experimental_value = 7.33


[Q] What does the data say about its pKd? Entry: target 1 A9U,G15U (mixed) RNA 1: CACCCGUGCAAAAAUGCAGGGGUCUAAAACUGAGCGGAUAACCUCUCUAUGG RNA 2: GGGAAUGGAUCCACAUCUACGAAUUCGUACCAUAGAUAGGUUUUCCGCUCACCGAGAUCGGAAGAGCACACGU
[A] 7.34
